Assign pIC50 to each entry below.
biological target: human FOXO1 (constitutively active form Thr24Ala, Ser256Ala, Ser319Ala) (Homo sapiens, UniProt Q12778, S256A/S319A/T24A); experiment: FOXO1 inhibitor activity assay: cell-based transcriptional (luciferase) reporter assay in HEK293 cells; conditions: HEK293 cells transfected with insulin response element firefly luciferase reporter, FOXO1 and Renilla luciferase; 10-point dose response 50 μM to 2.5 nM; 24 hours
Sequence (Q12778 whole entry T24A/S256A/S319A): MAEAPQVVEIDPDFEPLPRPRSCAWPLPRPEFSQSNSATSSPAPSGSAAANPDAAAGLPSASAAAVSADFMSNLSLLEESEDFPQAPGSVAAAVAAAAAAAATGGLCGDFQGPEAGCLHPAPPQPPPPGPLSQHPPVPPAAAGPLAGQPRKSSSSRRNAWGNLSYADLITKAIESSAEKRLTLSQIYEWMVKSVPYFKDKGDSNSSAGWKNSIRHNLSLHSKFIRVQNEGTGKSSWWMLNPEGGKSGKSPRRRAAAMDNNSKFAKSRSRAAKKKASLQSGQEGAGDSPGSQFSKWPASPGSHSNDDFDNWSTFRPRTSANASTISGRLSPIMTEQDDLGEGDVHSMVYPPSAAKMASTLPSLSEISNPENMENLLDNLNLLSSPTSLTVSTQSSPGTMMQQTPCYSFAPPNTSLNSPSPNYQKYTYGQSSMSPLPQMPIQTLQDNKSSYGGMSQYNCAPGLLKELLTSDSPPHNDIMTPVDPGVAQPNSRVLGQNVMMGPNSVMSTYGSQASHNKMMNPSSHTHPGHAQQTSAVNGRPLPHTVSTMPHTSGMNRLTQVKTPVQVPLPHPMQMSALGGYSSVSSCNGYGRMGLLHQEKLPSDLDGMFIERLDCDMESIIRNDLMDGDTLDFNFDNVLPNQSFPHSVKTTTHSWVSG
pIC50: −log10 of the molar value.

[
  {
    "compound": "COC1CN(c2ccc(C(=O)Nc3cc(-c4nc5ccccc5[nH]4)[nH]n3)cn2)C1 [Compound A-65]",
    "result": "> 7.00"
  }
]

For every item below, please supply its pIC50.
1. Cn1nc(NC(=O)c2ccc(N3CCNC(=O)C3)nc2)cc1-c1nc2ccccc2[nH]1 [Compound A-221]
2. Cn1nc(NC(=O)c2ccc(N3CCC(CO)CC3)nc2)cc1-c1nc2cccc(F)c2[nH]1 [Compound A-136]
3. COc1ccc(C(=O)Nc2cc(-c3nc4cc(N5CCN(C)CC5)ccc4[nH]3)[nH]n2)cc1Cl [Compound A-261]

A:
1: 6.00 to 6.52; 2: 6.52 to 7.00; 3: > 7.00
